ENDPOINT LABEL: melting point

Previously resolved entries follow.
| MOLECULE | melting point |
| --- | --- |
| NNC(=O)CN1C(=O)c2cc(Cl)ccc2NC1c1ccccc1 (centres unmarked) | 184 to 185 °C |
| COC(=O)CN1C(=O)c2cc(Cl)ccc2NC1c1ccc(OC)cc1 (centres unmarked) | 148 to 150 °C |
| O=C(CN1C(=O)c2cc(Cl)ccc2NC1c1ccccc1)NN=Cc1ccc(O)cc1 (centres unmarked) | 236 to 240 °C |

Field: melting point. Fill in for each record below.
1. COc1cc(C=NNC(=O)CN2C(=O)c3ccccc3NC2c2ccccc2)ccc1O (centres unmarked)
2. COC(=O)CN1C(=O)c2cc(Cl)ccc2NC1c1ccccc1OC (centres unmarked)
3. COc1cc(C=NNC(=O)Cn2c(C)nc3ccccc3c2=O)ccc1O [12d]

1: 252 to 255 °C; 2: 152 to 154 °C; 3: 258 to 260 °C

* * *

Please provide measured inhibition at 10 µM for the entries that follow.
- TARGET OR TEST SYSTEM: membrane-bound human MAO-A (Homo sapiens)
- PROCEDURE SUMMARY: MAO-A inhibition, H2O2/horseradish peroxidase coupled fluorescence assay with tyramine
- Assay type: biochemical
- CONDITIONS USED: read-out: % inhibition at 10 μM hMAO-A; 10 μM compound; tyramine 0.8 mM (2 × KM); average of two independent experiments
Numbers only, in %.

| COMPOUND | inhibition at 10 µM / % |
| --- | --- |
| COc1cc(/C=N/n2c(C)nc3ccccc3c2=O)ccc1O [14d] | 11 |

Field: inhibition at 10 µM. Fill in for each record below.
1. COc1ccccc1C1Nc2ccc(Cl)cc2C(=O)N1CC(=O)NN (stereo not shown)
2. Cc1nc2ccccc2c(=O)n1/N=C/c1ccccc1 [14a]

[0, 5]

* * *

- TARGET OR TEST SYSTEM: UniProtKB P21397
- PROCEDURE SUMMARY: MAO-A inhibition, H2O2/horseradish peroxidase coupled fluorescence assay with tyramine
- Format: biochemical
- CONDITIONS USED: tyramine at 2 × KM; seven concentrations 0.01–300 µM; ± s.d., two independent experiments
Marks after values point to notes of the source that are not given here.
ENDPOINT LABEL: IC50 (μM) hMAO-A

Previously resolved entries follow.
| MOLECULE | READOUT VALUE |
| --- | --- |
| O=C(CN1C(=O)c2cc(Cl)ccc2NC1c1ccccc1)NN=Cc1ccc(O)cc1 (stereo not drawn) [5g] | micromolar potency |
| COc1cc(C=NNC(=O)CN2C(=O)c3ccccc3NC2c2ccccc2)ccc1O (stereo not drawn) [5d] | micromolar potency |
| O=C(CN1C(=O)c2ccccc2NC1c1ccccc1)NN=Cc1ccccc1 (stereo not drawn) [5a] | micromolar potency |
| O=C(CN1C(=O)c2ccccc2NC1c1ccccc1)NN=Cc1ccc(O)cc1 (stereo not drawn) [5b] | none |
| COc1cc(C=NNC(=O)CN2C(=O)c3cc(Cl)ccc3NC2c2ccccc2)ccc1O (stereo not drawn) [5h] | micromolar potency |

Proceeding to the next molecule to report its IC50 (μM) hMAO-A.
Look up and report measured IC50 (μM) hMAO-A (UniProtKB P21397) for the following molecule: COC(=O)CN1C(=O)c2ccccc2NC1c1ccccc1 (stereo not drawn) [3a] none

* * *

Please provide measured melting point for the entries that follow.

Field: melting point. Fill in for each record below.
1. Cc1nc2ccccc2c(=O)n1CC(=O)NN=Cc1ccc(O)cc1 [12b]
2. COc1cc(C=NNC(=O)CN2C(=O)c3cc(Cl)ccc3NC2c2ccccc2)ccc1O (stereo not shown) [5h]
3. COc1ccc(C=NNC(=O)Cn2c(C)nc3ccccc3c2=O)cc1 [12c]
4. NNC(=O)Cn1c(-c2ccccc2)nc2ccccc2c1=O [compound 7]
5. O=C(CN1C(=O)c2ccccc2NC1c1ccccc1)NN=Cc1ccccc1 (stereo not shown) [5a]
6. COc1cc(/C=N/NC(=O)CNC(=O)c2cc(Cl)ccc2/N=C/c2ccccc2)ccc1O [compound 6]
7. COc1ccc(C2Nc3ccc(Cl)cc3C(=O)N2CC(=O)NN)cc1 (stereo not shown) [4c]

1: 192 to 195 °C; 2: 240 to 242 °C; 3: > 229 °C (dec.); 4: 215 to 218 °C; 5: 223 to 225 °C; 6: 257 to 259 °C; 7: 159 to 160 °C

Field: melting point. Fill in for each record below.
1. Cc1nc2ccccc2c(=O)n1CC(=O)NN=Cc1ccccc1 [12a]
2. COc1ccccc1C1Nc2ccc(Cl)cc2C(=O)N1CC(=O)NN (stereo not shown) [4d]
3. COc1ccc(C=NNC(=O)CN2C(=O)c3cc(Cl)ccc3NC2c2ccccc2)cc1 (stereo not shown) [5f]

1. 242 to 245 °C
2. 149 to 151 °C
3. 138 to 140 °C

* * *

- TARGET OR TEST SYSTEM: membrane-bound human MAO-A (Homo sapiens, UniProt P21397)
- Sequence (P21397 whole entry): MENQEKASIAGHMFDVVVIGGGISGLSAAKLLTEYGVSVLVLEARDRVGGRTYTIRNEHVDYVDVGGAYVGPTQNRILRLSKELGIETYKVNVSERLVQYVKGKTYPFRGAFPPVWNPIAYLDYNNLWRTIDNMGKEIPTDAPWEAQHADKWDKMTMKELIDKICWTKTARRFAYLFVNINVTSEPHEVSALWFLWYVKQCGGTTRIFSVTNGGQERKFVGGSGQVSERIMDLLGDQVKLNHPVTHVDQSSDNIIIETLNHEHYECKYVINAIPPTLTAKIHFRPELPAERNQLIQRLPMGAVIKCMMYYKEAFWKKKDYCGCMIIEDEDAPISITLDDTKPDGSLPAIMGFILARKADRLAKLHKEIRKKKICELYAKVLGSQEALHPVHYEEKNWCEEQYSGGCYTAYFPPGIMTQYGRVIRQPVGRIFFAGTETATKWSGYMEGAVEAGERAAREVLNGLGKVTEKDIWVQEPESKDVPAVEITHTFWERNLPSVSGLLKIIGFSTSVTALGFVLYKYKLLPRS
- PROCEDURE SUMMARY: MAO-A inhibition, H2O2/horseradish peroxidase coupled fluorescence assay with tyramine
- Assay type: biochemical
- CONDITIONS USED: read-out: % inhibition at 10 μM hMAO-A; 10 μM compound; tyramine 0.8 mM (2 × KM); average of two independent experiments
Please provide measured inhibition at 10 µM for the entries that follow.
Numbers only, in %.

Field: inhibition at 10 µM. Fill in for each record below.
1. Cc1nc2ccccc2c(=O)n1CC(=O)NN=Cc1ccc(O)cc1 [12b]
2. COc1ccc2c(c1)[nH]c1c(C)nccc12 [harmine, reference compound]

16
100

Field: inhibition at 10 µM. Fill in for each record below.
1. COc1cc(C=NNC(=O)CN2C(=O)c3ccccc3NC2c2ccccc2)ccc1O (stereo not shown) [5d]
2. COC(=O)CN1C(=O)c2cc(Cl)ccc2NC1c1ccc(OC)cc1 (stereo not shown) [3c]

1. 71
2. -3

* * *

- TARGET OR TEST SYSTEM: membrane-bound human MAO-B (Homo sapiens)
- PROCEDURE SUMMARY: MAO-B inhibition, H2O2/horseradish peroxidase coupled fluorescence assay with tyramine
- Assay type: biochemical
- CONDITIONS USED: read-out: % inhibition at 10 μM hMAO-B; 10 μM compound; tyramine 0.32 mM (2 × KM); average of two independent experiments
ENDPOINT LABEL: inhibition at 10 µM (%)
Give bare numbers, in %.

| COMPOUND | TARGET OR TEST SYSTEM | inhibition at 10 µM [%] |
| --- | --- | --- |
| COc1cc(/C=N/NC(=O)CNC(=O)c2cc(Cl)ccc2/N=C/c2ccccc2)ccc1O | membrane-bound human MAO-B (Homo sapiens) | 12 |
| O=C(CN1C(=O)c2ccccc2NC1c1ccccc1)NN=Cc1ccccc1 (stereo not shown) | membrane-bound human MAO-B (Homo sapiens) | 55 |
| Cc1nc2ccccc2c(=O)n1N | membrane-bound human MAO-B (Homo sapiens) | 23 |

Proceeding to the next compound to report its inhibition at 10 µM.
Input Cc1nc2ccccc2c(=O)n1/N=C/c1ccccc1 [14a] , output reported inhibition at 10 µM. 40

* * *

- TARGET OR TEST SYSTEM: membrane-bound human MAO-A (Homo sapiens)
- PROCEDURE SUMMARY: MAO-A inhibition, H2O2/horseradish peroxidase coupled fluorescence assay with tyramine
- Assay type: biochemical
- CONDITIONS USED: read-out: % inhibition at 10 μM hMAO-A; 10 μM compound; tyramine 0.8 mM (2 × KM); average of two independent experiments
Please provide measured inhibition at 10 µM for the entries that follow.
Answers are plain numbers, in %.

| COMPOUND | DISPLAY UNIT | inhibition at 10 µM |
| --- | --- | --- |
| Cc1nc2ccccc2c(=O)n1CC(=O)NN=Cc1ccccc1 [12a] | % | 6 |
| Cc1nc2ccccc2c(=O)n1N | % | -8 |
| O=C(CN1C(=O)c2ccccc2NC1c1ccccc1)NN=Cc1ccccc1 (stereo not drawn) | % | 19 |
| Cc1nc2ccccc2c(=O)n1/N=C/c1ccc(O)cc1 [14b] | % | 14 |
| COc1ccc(C2Nc3ccc(Cl)cc3C(=O)N2CC(=O)NN)cc1 (stereo not drawn) | % | 0 |

Proceeding to the next compound to report its inhibition at 10 µM.
Input O=C(CN1C(=O)c2cc(Cl)ccc2NC1c1ccccc1)NN=Cc1ccccc1 (stereo not drawn) , output reported inhibition at 10 µM. 10

* * *

- TARGET OR TEST SYSTEM: UniProt:P27338
- Sequence (P27338 1-520): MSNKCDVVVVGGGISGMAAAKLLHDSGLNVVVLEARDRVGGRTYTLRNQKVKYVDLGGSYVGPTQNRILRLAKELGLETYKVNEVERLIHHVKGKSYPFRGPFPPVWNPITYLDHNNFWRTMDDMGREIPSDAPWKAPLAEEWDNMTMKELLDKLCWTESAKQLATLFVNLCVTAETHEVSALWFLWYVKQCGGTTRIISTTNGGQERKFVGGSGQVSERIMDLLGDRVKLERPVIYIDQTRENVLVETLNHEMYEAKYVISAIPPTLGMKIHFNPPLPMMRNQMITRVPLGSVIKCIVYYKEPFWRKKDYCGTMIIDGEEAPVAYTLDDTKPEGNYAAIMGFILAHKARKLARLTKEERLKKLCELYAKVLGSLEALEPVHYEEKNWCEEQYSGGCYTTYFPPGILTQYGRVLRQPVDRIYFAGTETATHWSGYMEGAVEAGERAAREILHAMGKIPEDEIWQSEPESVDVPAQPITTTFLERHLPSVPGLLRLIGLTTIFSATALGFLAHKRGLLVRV
- PROCEDURE SUMMARY: MAO-B inhibition, H2O2/horseradish peroxidase coupled fluorescence assay with tyramine
- Type: biochemical
- CONDITIONS USED: from dose–response curve; in parentheses after IC50, given if less than 95%
ENDPOINT LABEL: maximum inhibition (%) hMAO-B

Previously resolved entries follow.
| COMPOUND | TARGET OR TEST SYSTEM | ENDPOINT LABEL | READOUT VALUE |
| --- | --- | --- | --- |
| COc1cc(C=NNC(=O)CN2C(=O)c3ccccc3NC2c2ccccc2)ccc1O (centres unmarked) [5d] | UniProt:P27338 | maximum inhibition (%) hMAO-B | full inhibition |
| O=C(CN1C(=O)c2cc(Cl)ccc2NC1c1ccccc1)NN=Cc1ccc(O)cc1 (centres unmarked) [5g] | UniProt:P27338 | maximum inhibition (%) hMAO-B | full inhibition |
| O=C(CN1C(=O)c2ccccc2NC1c1ccccc1)NN=Cc1ccccc1 (centres unmarked) [5a] | UniProt:P27338 | maximum inhibition (%) hMAO-B | full inhibition |
| COc1cc(C=NNC(=O)CN2C(=O)c3cc(Cl)ccc3NC2c2ccccc2)ccc1O (centres unmarked) [5h] | UniProt:P27338 | maximum inhibition (%) hMAO-B | full inhibition |

Proceeding to the next compound to report its maximum inhibition (%) hMAO-B.
Input COc1cc(C=NNC(=O)Cn2c(C)nc3ccccc3c2=O)ccc1O [12d] , output reported maximum inhibition (%) hMAO-B. full inhibition
